# Tested on: HCT-15 colon
# ASSAY PROCEDURE: NCI tumour cell line growth inhibition, 48 h
ENDPOINT: TGI

Annotate the compound "COC(=O)CCC(=O)CC(=O)C(=O)Nc1ccc(F)cc1" with its measured TGI. > 100 µM

Annotate the compound "CN(C)C(=S)N/N=C\C(=N/NC(=S)N(C)C)c1ccccc1" with its measured TGI. > 100 µM

Annotate the compound "C/C(O)=C(/C=N\C(=S)Nc1ccc(Cl)c(Cl)c1)C(=O)Nc1ccccc1C" with its measured TGI. > 100 µM

Annotate the compound CCOc1ccc(C2=C(Cl)c3cc(OC)c(OC)cc3C2Cl)cc1 (centres undefined) with its measured TGI. > 100 µM

Annotate the compound "COC(=O)C1=C(C(=O)OC)SC(=C2c3ccsc3-c3sccc32)S1" with its measured TGI. > 100 µM

Annotate the compound CC(C)(C)[Si](C)(C)OCC1OC(n2cc(F)c(=O)[nH]c2=O)CC1O[Si](C)(C)C(C)(C)C (centres undefined) with its measured TGI. 20.4 µM

Annotate the compound CCCCC(NC(=O)CC)C(=O)O (centres undefined) with its measured TGI. > 100 µM

Annotate the compound "CC(=O)O[C@H]1C(=O)[C@@]2(C)[C@H]([C@H](OC(=O)c3ccccc3)[C@]3(O)C[C@H](OC(=O)[C@H](O)[C@@H](NC(=O)c4ccccc4)C4CCCCC4)C(C)=C1C3(C)C)[C@]1(OC(C)=O)CO[C@@H]1C[C@@H]2O" with its measured TGI. > 51.1 µM

Annotate the compound "Cc1ccc(S(=O)(=O)c2c(N)c3nccn3c3nc4ccccc4nc23)cc1" with its measured TGI. > 100 µM

====

# System: RXF 393 renal
# ASSAY PROCEDURE: NCI tumour cell line growth inhibition, 48 h; in the data active = GI50 below about 0.43 µM; inactive = the rest
Pick one and only one: true for active, false for inactive

I'd appreciate the recorded outcome for "COc1ccc(-c2cc(-c3ccc(O)cc3)nc3nc(=S)[nH]c(N)c23)cc1" from this test. false

I'd appreciate the recorded outcome for "O=C1Nc2ccccc2C1(c1ccc(O)c(F)c1)c1ccc(O)c(F)c1" from this test. false

I'd appreciate the recorded outcome for "C=C1C(=O)O[C@H]2[C@H]1CC/C(C=Nc1ccc(C(F)(F)F)cc1N)=C\CC[C@@]1(C)O[C@@H]21" from this test. false

I'd appreciate the recorded outcome for "O=C(/C=C/C=C/c1ccccc1)c1ccc(Nc2nc(Nc3ccccc3)nc(Nc3ccccc3)n2)cc1" from this test. false

I'd appreciate the recorded outcome for CC1(C)Cc2cccc(OCC(O)CN3CCN(c4ccc(F)cc4)CC3)c2O1 (centres undefined) from this test. false

I'd appreciate the recorded outcome for "CCOC(=O)c1ccc2c(c1)[n+](=O)c(C(=O)c1ccc3ccccc3c1)c(C(F)(F)F)n2[O-]" from this test. false

I'd appreciate the recorded outcome for "Fc1ccc(-c2ncn(C3CCNCC3)c2-c2ccnc(Oc3ccccc3)n2)cc1" from this test. false

I'd appreciate the recorded outcome for "CC1(C)CC[C@]2(C(=O)n3ccnc3)CC[C@]3(C)[C@H](C(=O)C=C4[C@@]5(C)C=C(C#N)C(=O)C(C)(C)[C@@H]5CC[C@]43C)[C@@H]2C1" from this test. true

I'd appreciate the recorded outcome for "CCCN(CCC)c1ccc(C=O)cc1" from this test. false

I'd appreciate the recorded outcome for "CCCCCCCCCCCC1=NC(C)(C)CN1CCO" from this test. false

I'd appreciate the recorded outcome for O=C(O)c1cc(N/C=C2\C(=O)c3ccccc3OC2O)ccc1O (centres undefined) from this test. false

I'd appreciate the recorded outcome for "CN(C)c1ccc(/C=C(\C#N)c2cc3ccccc3n2C)cc1" from this test. true

I'd appreciate the recorded outcome for "O=C(N/N=C/c1coc2ccc(Cl)cc2c1=O)c1ccncc1" from this test. false

I'd appreciate the recorded outcome for "Nc1ccccc1/C=N\Nc1ccccc1" from this test. false
